FYI, the data here is from patent US8901125B2.

assay target: human mGluR5a receptor (Homo sapiens)
assay method text: Cell-based functional assay (Ca2+ mobilization, FDSS), potentiation of glutamate EC20 response
recorded conditions: H10H cell line; maximum % effect in the concentration-response curve as percent of maximal glutamate response; glutamate EC20
result type: Emax (%)

COc1ccccc1COc1cc2n(n1)CCN(c1ccc(F)cc1)C2=O [Example B29] :: 36
CN(C)c1cccc(N2CCn3nc(OCc4ccccc4)cc3C2=O)n1 [Example B15] :: 61
O=C1c2cc(OCc3ccccc3)nn2CCN1c1cccc(C2CC2)n1 [Example B3] :: 59
COc1c(Cl)cccc1CN1CCn2nc(OCc3ccccc3)cc2C1=O [Example B57] :: 42

[P] Cc1cccc(COc2cc3n(n2)CCN(c2ccc(F)cc2)C3=O)n1 [Example B36]
[Q] C[C@@H]1Cn2nc(OCc3ccccc3)cc2C(=O)N1Cc1ccccc1 [Example B61]
[R] O=C1c2cc(OCc3cccnc3)nn2CCN1c1ccc(F)cc1 [Example B35]
Query block: Put the molecules in ascending order of Emax. Please list each label once, in the requested order.
Result block: R, P, Q

---

assay target: UniProt:P41594
assay method text: Cell-based functional assay (Ca2+ mobilization, FDSS), potentiation of glutamate EC20 response
recorded conditions: H10H cell line; potentiation in presence of glutamate EC20; concentration in mol/L
result type: EC50 (µM)

[1] COc1c(Cl)cccc1CN1CCn2nc(OCc3ccccc3)cc2C1=O
[2] Cc1cccc(N2CCn3nc(OCc4ccccc4)cc3C2=O)n1
Query block: Which value of EC50 is smaller, the one for 1 or the one for 2 ? Answer by stating the label of the chosen item.
Result block: 1
(1: 0.0759 µM, 2: 0.174 µM)

---

result type: melting point (°C)

As a guide, the following entries are already answered.
Cc1nc(N2CCn3nc(OCc4ccccc4)cc3C2=O)ccc1F [Example B17] :: 167.1
COc1cc(N2CCn3nc(OCc4ccccc4)cc3C2=O)ccc1F [Example B8] :: 145.3
N#Cc1cccc(COc2cc3n(n2)CCN(c2ccc(F)cc2)C3=O)c1 [Example B27] :: 147.9
C[C@@H]1Cn2nc(OCc3ccccc3)cc2C(=O)N1c1ccc(F)cc1 [Example B9] :: 229.9
Cc1cc(N2CCn3nc(OCc4ccccc4)cc3C2=O)ccc1F [Example B7] :: 209.8
COc1nc(N2CCn3nc(OCc4ccccc4)cc3C2=O)ncc1F [Example B21] :: 223

[I] O=C1c2cc(OCc3ccc(F)cc3)nn2CCN1c1ccc(F)cc1 [Example B32]
[II] COc1c(Cl)cccc1CN1CCn2nc(OCc3ccccc3)cc2C1=O [Example B57]
Query block: Endpoint returns the identifier whose melting point is numerically larger, either I or II . Answer by stating the label of the chosen item.
Result block: II
(II: 232.7 °C, I: 155.8 °C)

---

assay target: human mGluR5a receptor (Homo sapiens, UniProt P41594)
Sequence (P41594 21-1180 isoform P41594-2 limits assumed): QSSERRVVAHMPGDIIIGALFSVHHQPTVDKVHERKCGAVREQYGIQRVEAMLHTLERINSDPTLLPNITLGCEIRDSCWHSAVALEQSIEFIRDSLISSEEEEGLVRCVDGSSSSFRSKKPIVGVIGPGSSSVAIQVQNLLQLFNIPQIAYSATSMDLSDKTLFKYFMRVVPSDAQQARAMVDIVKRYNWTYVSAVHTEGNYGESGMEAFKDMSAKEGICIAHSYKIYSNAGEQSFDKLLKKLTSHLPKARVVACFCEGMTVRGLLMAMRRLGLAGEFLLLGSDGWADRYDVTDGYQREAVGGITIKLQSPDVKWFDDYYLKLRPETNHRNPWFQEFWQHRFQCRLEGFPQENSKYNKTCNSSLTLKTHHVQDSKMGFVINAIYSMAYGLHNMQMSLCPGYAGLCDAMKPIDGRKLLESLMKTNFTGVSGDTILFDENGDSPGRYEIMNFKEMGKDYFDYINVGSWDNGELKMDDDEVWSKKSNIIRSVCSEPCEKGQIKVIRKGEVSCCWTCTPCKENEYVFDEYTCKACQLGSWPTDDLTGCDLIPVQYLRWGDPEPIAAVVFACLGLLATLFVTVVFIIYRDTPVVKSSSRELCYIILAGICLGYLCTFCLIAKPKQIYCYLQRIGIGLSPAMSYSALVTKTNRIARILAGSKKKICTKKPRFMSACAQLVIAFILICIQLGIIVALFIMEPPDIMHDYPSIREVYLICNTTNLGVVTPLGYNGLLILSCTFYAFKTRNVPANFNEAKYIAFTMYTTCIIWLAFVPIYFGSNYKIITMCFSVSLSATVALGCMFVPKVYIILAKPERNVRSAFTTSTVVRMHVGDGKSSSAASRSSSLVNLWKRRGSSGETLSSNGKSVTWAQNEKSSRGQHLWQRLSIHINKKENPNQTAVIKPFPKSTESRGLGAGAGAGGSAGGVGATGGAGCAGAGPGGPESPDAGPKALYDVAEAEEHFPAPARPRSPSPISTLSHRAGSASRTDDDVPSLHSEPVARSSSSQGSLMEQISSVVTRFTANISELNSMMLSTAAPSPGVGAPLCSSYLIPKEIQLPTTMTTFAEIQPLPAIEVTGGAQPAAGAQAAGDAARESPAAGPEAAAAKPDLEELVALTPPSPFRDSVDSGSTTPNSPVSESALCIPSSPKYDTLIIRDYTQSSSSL
assay method text: Cell-based functional assay (Ca2+ mobilization, FDSS), potentiation of glutamate EC20 response
recorded conditions: H10H cell line; maximum % effect in the concentration-response curve as percent of maximal glutamate response; glutamate EC20
result type: Emax (%)

Example molecules with recorded Emax:
C[C@@H]1Cn2nc(OCc3ccccc3)cc2C(=O)N1c1ccc(F)cc1 :: 52
O=C1c2cc(OCc3ccccc3)nn2CCN1c1ccc(F)cc1 :: 54
O=C1c2cc(OCc3ccccc3)nn2CCN1Cc1ccccc1 :: 36
COc1cc(N2CCn3nc(OCc4ccccc4)cc3C2=O)ccc1F :: 45
COc1ccc(COc2cc3n(n2)CCN(c2ccc(F)cc2)C3=O)cc1 :: 28

[1] O=C1c2cc(OCc3ccccc3)nn2CCN1c1cccc(F)c1
[2] O=C1c2cc(OCc3ccccc3)nn2CCN1c1ccccn1
Query block: Look at 1 and 2 . Which one has the lower recorded Emax number? // output: label of the selected item
Result block: 2

---

assay target: human mGluR5a receptor (Homo sapiens, UniProt P41594)
assay method text: Cell-based functional assay (Ca2+ mobilization, FDSS), potentiation of glutamate EC20 response
recorded conditions: H10H cell line; maximum % effect in the concentration-response curve as percent of maximal glutamate response; glutamate EC20
result type: Emax (%)

COc1cccc(COc2cc3n(n2)CCN(c2ccc(F)cc2)C3=O)c1 [Example B33] :: 18
COc1nccc(N2CCn3nc(OCc4ccccc4)cc3C2=O)n1 [Example B2] :: 57
COc1cc(CN2CCn3nc(OCc4ccccc4)cc3C2=O)ccc1F [Example B69] :: 63

[1] O=C1c2cc(OCc3cccc(F)c3)nn2CCN1c1ccc(F)cc1 [Example B26]
[2] O=C1c2cc(OCc3ccccc3)nn2CCN1c1cccnc1 [Example B12]
[3] O=C1c2cc(OCc3ccncc3)nn2CCN1c1ccc(F)cc1 [Example B31]
Query block: Rank by Emax (largest to smallest). # answer = labels listed in requested order
Result block: 1, 3, 2

---

result type: melting point (°C)

Here are 5 compounds together with their reported answers.
O=C1c2cc(OCc3ccccc3)nn2CCN1c1cccc(C2CC2)n1 [Example B3] :: 146.2
Cc1cccc(N2CCn3nc(OCc4ccccc4)cc3C2=O)n1 [Example B14] :: 152.1
Cc1cncc(N2CCn3nc(OCc4ccccc4)cc3C2=O)n1 [Example B22] :: 215.2
COc1nccc(N2CCn3nc(OCc4ccccc4)cc3C2=O)n1 [Example B2] :: 160.6
O=C1c2cc(OCc3ccccc3)nn2CCN1CC1CC1(F)F (stereo not shown) [Example B72] :: 107.4

[1] O=C1c2cc(OCc3ccccc3)nn2CCN1Cc1ccccc1 [Example B59]
[2] O=C1c2cc(OCc3ccncc3)nn2CCN1c1ccc(F)cc1 [Example B31]
Query block: // compare: 1 vs 2 , metric melting point, want the smaller Indicate which entry you chose by stating its label.
Result block: 1
(1: 103.8 °C, 2: 172.9 °C)

---

assay target: human mGluR5a receptor (Homo sapiens, UniProt P41594)
assay method text: Cell-based functional assay (Ca2+ mobilization, FDSS), potentiation of glutamate EC20 response
recorded conditions: H10H cell line; potentiation in presence of glutamate EC20; concentration in mol/L
result type: EC50 (nM)

# annotated cases, reported EC50 shown
O=C1c2cc(OCc3ccccc3)nn2CCN1CC1CC(F)(F)C1 :: 692
COc1nc(N2CCn3nc(OCc4ccccc4)cc3C2=O)ncc1F :: 251

[a] Cc1cc(N2CCn3nc(OCc4ccccc4)cc3C2=O)ccc1F
[b] O=C1c2cc(OCc3ccccc3)nn2CCN1CC1CCC1
Query block: Task for the reader: decide whether a or b has the larger EC50. Your answer should be the label of the entry you select.
Result block: b

---

assay target: human mGluR5a receptor (Homo sapiens, UniProt P41594)
assay method text: Cell-based functional assay (Ca2+ mobilization, FDSS), potentiation of glutamate EC20 response
recorded conditions: H10H cell line; potentiation in presence of glutamate EC20; concentration in mol/L
pEC50: −log10 of the molar value.
result type: pEC50

Would you please look over these solved cases?
COc1nccc(N2CCn3nc(OCc4ccccc4)cc3C2=O)n1 [Example B2] :: 6.18
Cc1nc(N2CCCn3nc(OCc4ccccc4)cc3C2=O)ccc1F [Example B51] :: 6.44
COc1cccc(CN2CCn3nc(OCc4ccccc4)cc3C2=O)c1Cl [Example B67] :: 6.94
O=C1c2cc(OCc3ccccc3)nn2CCCN1c1ccc(F)cc1 [Example B49] :: 6.26
O=C1c2cc(OCc3ccccc3)nn2CCN1c1ccc(F)cc1 [Example B1] :: 6.74

[1] COc1cc(F)cc(CN2CCn3nc(OCc4ccccc4)cc3C2=O)c1 [Example B63]
[2] CC1CN(c2ccc(F)cc2)C(=O)c2cc(OCc3ccccc3)nn21 (single isomer, unassigned) [Example B10]
Query block: Task for the reader: decide whether 1 or 2 has the larger pEC50. Give the label of your selection.
Result block: 2
(2: 6.76, 1: 6.19)

---

assay target: UniProt:P41594
assay method text: Cell-based functional assay (Ca2+ mobilization, FDSS), potentiation of glutamate EC20 response
recorded conditions: H10H cell line; maximum % effect in the concentration-response curve as percent of maximal glutamate response; glutamate EC20
result type: Emax (%)

[a] O=C1c2cc(OCc3ccccc3)nn2CCN1c1ccc(F)cn1 [Example B16]
[b] O=C1c2cc(OCc3ccc(F)cc3)nn2CCN1c1ccc(F)cc1 [Example B32]
[c] O=C1c2cc(OCc3ccccc3)nn2CCN1CC1CC1 [Example B44]
Query block: Please list the entries, largest Emax first. The reply should contain the labels ordered as requested.
Result block: a, c, b

[1] O=C1c2cc(OCc3ccccc3F)nn2CCN1c1ccc(F)cc1 [Example B4]
[2] O=C1c2cc(OCc3ccccc3)nn2CCN1c1ccncc1 [Example B13]
[3] O=C1c2cc(OCc3ccccc3)nn2CCCN1c1ccc(F)cn1 [Example B50]
Query block: Put the items in sequence by Emax, from largest down. Please write the labels in the order that was asked for.
Result block: 1, 2, 3
(1: 63%, 2: 37%, 3: 25%)

[I] COc1cccc(CN2CCn3nc(OCc4ccccc4)cc3C2=O)c1F [Example B66]
[II] O=C1c2cc(OCc3ccccn3)nn2CCN1c1ccc(F)cc1 [Example B34]
Query block: Between item I and item II , which reported Emax is smaller? I would appreciate it if you answered with the label of your choice.
Result block: II

[I] COc1cc(F)cc(CN2CCn3nc(OCc4ccccc4)cc3C2=O)c1 [Example B63]
[II] O=C1c2cc(OCc3ccccc3)nn2CCN1CC1CC1(F)F (stereo not drawn) [Example B72]
Query block: So which one has the bigger Emax here, I or II ? # answer = label of selected item
Result block: I
(I: 62%, II: 21%)
